- Test system: NCI-H1876 complex spheroid viability
- test details: Anticancer human tumor NCI-H1876 cell line growth inhibition [LSD1]; active means viability on the fitted dose curve at most 10% of control; inactive means the rest
- study conditions: second compound 1 µM; first compound 10 µM
Respond using exactly one of the listed classes: active, inactive

Reference set, count: 2
compound: COc1ccc([C@@H](O)c2cc(-c3ncnc4cc(N5CCOCC5)ccc34)c(F)cc2Cl)nn1 + NC1CCC(NC2CC2c2ccccc2)CC1
group label: inactive

compound: CC1(C)CCC(CN2CCN(c3ccc(C(=O)NS(=O)(=O)c4ccc(NCC5CCOCC5)c([N+](=O)[O-])c4)c(Oc4cnc5[nH]ccc5c4)c3)CC2)=C(c2ccc(Cl)cc2)C1 + NC1CCC(NC2CC2c2ccccc2)CC1
group label: active

// switching to the query compound
Request: Test call, this compound: CC1(C)CCC(CN2CCN(c3ccc(C(=O)NS(=O)(=O)c4ccc(NCC5CCOCC5)c([N+](=O)[O-])c4)c(Oc4cnc5[nH]ccc5c4)c3)CC2)=C(c2ccc(Cl)cc2)C1 + NC1CC1c1ccc(-c2cccc(O)c2)cc1
Result: active

====

- Tested on: NCI-H1876 complex spheroid viability
- test details: Anticancer human tumor NCI-H1876 cell line growth inhibition [LSD1]; active means viability on the fitted dose curve at most 10% of control; inactive means the rest
- study conditions: second compound 0.316 µM; first compound 0.03 µM
Hi! Could you answer with just one of these? yes (1) = active, no (0) = inactive

compound: Nc1ccn(C2OC(CO)C(O)C2(F)F)c(=O)n1 (stereo not drawn) + NC1CCC(NC2CC2c2ccccc2)CC1
target entity: NCI-H1876 complex spheroid viability
group label: no (0)
//
compound: NS(=O)(=O)OCC1CC(n2ccc3c(NC4CCc5ccccc54)ncnc32)CC1O (stereo not drawn) + NC1CC1c1ccc(-c2cccc(O)c2)cc1
target entity: NCI-H1876 complex spheroid viability
group label: no (0)
//
compound: Nc1ccccc1NC(=O)c1ccc(CNC(=O)OCc2cccnc2)cc1 + NC1CC1c1ccc(-c2cccc(O)c2)cc1
target entity: NCI-H1876 complex spheroid viability
group label: no (0)
//
compound: COc1cc(C2c3cc4c(cc3C(OC3OC5COC(C)OC5C(O)C3O)C3COC(=O)C23)OCO4)cc(OC)c1O (stereo not drawn) + NC1CCC(NC2CC2c2ccccc2)CC1
target entity: NCI-H1876 complex spheroid viability
group label: no (0)
//
compound: Nc1ncn(C2CC(O)C(CO)S2)c(=O)n1 (stereo not drawn) + NC1CCC(NC2CC2c2ccccc2)CC1
target entity: NCI-H1876 complex spheroid viability
group label: no (0)

Request: Record request — test call for COc1cc(C2c3cc4c(cc3C(OC3OC5COC(C)OC5C(O)C3O)C3COC(=O)C23)OCO4)cc(OC)c1O (stereo not drawn) + NC1CC1c1ccc(-c2cccc(O)c2)cc1
Result: no (0)

Request: Given CCN(c1cc(-c2ccc(CN3CCOCC3)cc2)cc(C(=O)NCc2c(C)cc(C)[nH]c2=O)c1C)C1CCOCC1 + NC1CCC(NC2CC2c2ccccc2)CC1 , state the outcome it received in this test.
Result: no (0)

Request: Outcome? Nc1ccn(C2OC(CO)C(O)C2(F)F)c(=O)n1 (stereo not drawn) + NC1CC1c1ccc(-c2cccc(O)c2)cc1
Result: yes (1)

====

- System: NCI-H1876 complex spheroid viability
- test details: Anticancer human tumor NCI-H1876 cell line growth inhibition [LSD1]; active = viability on the fitted dose curve at most 10% of control; inactive = the rest
- study conditions: second compound 1 µM; first compound 0.00949 µM
// one of active, inactive, no free text

Examples from the recorded data:
compound: CCc1c2c(nc3ccc(O)cc13)-c1cc3c(c(=O)n1C2)COC(=O)[C@]3(O)CC + NC1CCC(NC2CC2c2ccccc2)CC1
group label: active
//
compound: Nc1ncn(C2CC(O)C(CO)S2)c(=O)n1 (stereo unspecified) + NC1CCC(NC2CC2c2ccccc2)CC1
group label: inactive
//
compound: COc1cc(C2c3cc4c(cc3C(OC3OC5COC(C)OC5C(O)C3O)C3COC(=O)C23)OCO4)cc(OC)c1O (stereo unspecified) + NC1CCC(NC2CC2c2ccccc2)CC1
group label: inactive
//
compound: CCc1c2c(nc3ccc(O)cc13)-c1cc3c(c(=O)n1C2)COC(=O)[C@]3(O)CC + NC1CC1c1ccc(-c2cccc(O)c2)cc1
group label: active
//
compound: Nc1ccn(C2OC(CO)C(O)C2(F)F)c(=O)n1 (stereo unspecified) + NC1CC1c1ccc(-c2cccc(O)c2)cc1
group label: inactive

Request: Outcome logged for Nc1ccccc1NC(=O)c1ccc(CNC(=O)OCc2cccnc2)cc1 + NC1CCC(NC2CC2c2ccccc2)CC1 in this assay:
Result: inactive

Request: Short answer needed: outcome of this test for NS(=O)(=O)OCC1CC(n2ccc3c(NC4CCc5ccccc54)ncnc32)CC1O (stereo unspecified) + NC1CC1c1ccc(-c2cccc(O)c2)cc1 ?
Result: inactive

Request: Please let me know the test result on file for O=C(C=Cc1cccc(S(=O)(=O)Nc2ccccc2)c1)NO + NC1CCC(NC2CC2c2ccccc2)CC1 .
Result: inactive

====

- Tested on: NCI-H1876 complex spheroid viability
- test details: Anticancer human tumor NCI-H1876 cell line growth inhibition [LSD1];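 further: spheroids exposed to compounds for one week before readout; 100% = DMSO vehicle-treated spheroids so lower means fewer viable cells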
- study conditions: second compound 0.1 µM; first compound 0.3 µM; active compounds read low
recorded endpoint: viability, T/C

Consider the worked cases shown below.
compound: Nc1ccccc1NC(=O)c1ccc(CNC(=O)OCc2cccnc2)cc1 + NC1CC1c1ccc(-c2cccc(O)c2)cc1
recorded endpoint: viability, T/C
experimental result: 9.94%
//
compound: NS(=O)(=O)OCC1CC(n2ccc3c(NC4CCc5ccccc54)ncnc32)CC1O (centres undefined) + NC1CC1c1ccc(-c2cccc(O)c2)cc1
recorded endpoint: viability, T/C
experimental result: 45.5%

Request: Given the compound COc1cc(C2c3cc4c(cc3C(OC3OC5COC(C)OC5C(O)C3O)C3COC(=O)C23)OCO4)cc(OC)c1O (centres undefined) + NC1CCC(NC2CC2c2ccccc2)CC1 , write its reported viability, T/C.
Result: 23.5%

Request: Look up viability, T/C of Nc1ccn(C2OC(CO)C(O)C2(F)F)c(=O)n1 (centres undefined) + NC1CC1c1ccc(-c2cccc(O)c2)cc1 and report it.
Result: 7.07%

====

- System: NCI-H1876 complex spheroid viability
- test details: Anticancer human tumor NCI-H1876 cell line growth inhibition [LSD1];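 further: spheroids exposed to compounds for one week before readout; 100% = DMSO vehicle-treated spheroids so lower means fewer viable cells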
- study conditions: second compound 1 µM; first compound 10 µM; active compounds read low
recorded endpoint: viability, T/C

Completed entries (count: 2):
compound: CC(C)c1c(-c2ccccc2)nc2c(C#N)c[nH]n2c1=O + NC1CC1c1ccc(-c2cccc(O)c2)cc1
viability, T/C: 36.5%
--
compound: O=C(c1cc(Cc2n[nH]c(=O)c3ccccc23)ccc1F)N1CCN(C(=O)C2CC2)CC1 + NC1CC1c1ccc(-c2cccc(O)c2)cc1
viability, T/C: 36.7%

Shifting focus to the compound that follows.
Request: Read the entry CC1COCCN1c1cc(C2(S(C)(=N)=O)CC2)nc(-c2ccnc3[nH]ccc23)n1 (stereo not drawn) + NC1CC1c1ccc(-c2cccc(O)c2)cc1 and write its reported viability, T/C.
Result: 28%

====

- Test system: NCI-H1876 complex spheroid viability
- test details: Anticancer human tumor NCI-H1876 cell line growth inhibition [LSD1];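 further: spheroids exposed to compounds for one week before readout; 100% = DMSO vehicle-treated spheroids so lower means fewer viable cells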
- study conditions: second compound 3.16 µM; first compound 0.0949 µM; active compounds read low
recorded endpoint: viability, T/C (%)
Report the value in % with no unit label.

molecule: O=C(C=Cc1cccc(S(=O)(=O)Nc2ccccc2)c1)NO + NC1CC1c1ccc(-c2cccc(O)c2)cc1
unit spec: %
viability, T/C: 87.8

molecule: Nc1ccn(C2OC(CO)C(O)C2(F)F)c(=O)n1 (centres undefined) + NC1CC1c1ccc(-c2cccc(O)c2)cc1
unit spec: %
viability, T/C: 8.03

molecule: CCN(c1cc(-c2ccc(CN3CCOCC3)cc2)cc(C(=O)NCc2c(C)cc(C)[nH]c2=O)c1C)C1CCOCC1 + NC1CC1c1ccc(-c2cccc(O)c2)cc1
unit spec: %
viability, T/C: 107

# input for lookup
Request: Provide only the value of recorded viability, T/C for Nc1ccccc1NC(=O)c1ccc(CNC(=O)OCc2cccnc2)cc1 + NC1CC1c1ccc(-c2cccc(O)c2)cc1
Result: 37.3

====

- Test system: NCI-H1876 complex spheroid viability
- test details: Anticancer human tumor NCI-H1876 cell line growth inhibition [LSD1]; active means viability on the fitted dose curve at most 10% of control; inactive means the rest;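 further: spheroids exposed to compounds for one week before readout; 100% = DMSO vehicle-treated spheroids so lower means fewer viable cells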
- study conditions: second compound 3.16 µM; first compound 0.0316 µM
Assign a class; possible classes are y (active), n (inactive)

Here's what some known entries look like.
compound: CC1COCCN1c1cc(-c2ccnn2C)c2ccnc(-c3ccn[nH]3)c2n1 (centres undefined) + NC1CC1c1ccc(-c2cccc(O)c2)cc1
group label: n
//
compound: CC1(C)CCC(CN2CCN(c3ccc(C(=O)NS(=O)(=O)c4ccc(NCC5CCOCC5)c([N+](=O)[O-])c4)c(Oc4cnc5[nH]ccc5c4)c3)CC2)=C(c2ccc(Cl)cc2)C1 + NC1CC1c1ccc(-c2cccc(O)c2)cc1
group label: n
//
compound: CC1COCCN1c1cc(-c2ccnn2C)c2ccnc(-c3ccn[nH]3)c2n1 (centres undefined) + NC1CCC(NC2CC2c2ccccc2)CC1
group label: n
//
compound: CC(C)CC(NC(=O)CNC(=O)c1cc(Cl)ccc1Cl)B1OC(=O)CC(CC(=O)O)(C(=O)O)O1 (centres undefined) + NC1CC1c1ccc(-c2cccc(O)c2)cc1
group label: y
//
compound: O=C(c1cc(Cc2n[nH]c(=O)c3ccccc23)ccc1F)N1CCN(C(=O)C2CC2)CC1 + NC1CCC(NC2CC2c2ccccc2)CC1
group label: n
//
compound: O=C(C=Cn1cnc(-c2cc(C(F)(F)F)cc(C(F)(F)F)c2)n1)NNc1cnccn1 + NC1CCC(NC2CC2c2ccccc2)CC1
group label: n

Request: Short answer needed: outcome of this test for Nc1ncn(C2CC(O)C(CO)O2)c(=O)n1 (centres undefined) + NC1CCC(NC2CC2c2ccccc2)CC1 ?
Result: n

Request: What outcome does the record of this test show for CC1COCCN1c1cc(C2(S(C)(=N)=O)CC2)nc(-c2ccnc3[nH]ccc23)n1 (centres undefined) + NC1CC1c1ccc(-c2cccc(O)c2)cc1 ?
Result: n

Request: Please let me know the test result on file for CC(C)CC(NC(=O)C(Cc1ccccc1)NC(=O)c1cnccn1)B(O)O (centres undefined) + NC1CCC(NC2CC2c2ccccc2)CC1 .
Result: y

Request: Which outcome was entered for the compound CC1COCCN1c1cc(C2(S(C)(=N)=O)CC2)nc(-c2ccnc3[nH]ccc23)n1 (centres undefined) + NC1CCC(NC2CC2c2ccccc2)CC1 in this test?
Result: n

Request: Dear all, I need the recorded test outcome for COc1cc(Nc2ncc3c(n2)-c2ccc(Cl)cc2C(c2c(F)cccc2OC)=NC3)ccc1C(=O)O + NC1CCC(NC2CC2c2ccccc2)CC1 , thank you.
Result: n

Request: Would you mind telling me which call this test gave COc1cc(Nc2ncc3c(n2)-c2ccc(Cl)cc2C(c2c(F)cccc2OC)=NC3)ccc1C(=O)O + NC1CC1c1ccc(-c2cccc(O)c2)cc1 ?
Result: n

Request: Assay outcome for O=C(C=Cn1cnc(-c2cc(C(F)(F)F)cc(C(F)(F)F)c2)n1)NNc1cnccn1 + NC1CC1c1ccc(-c2cccc(O)c2)cc1 : what was it?
Result: n

Request: Outcome? CC(C)CC(NC(=O)CNC(=O)c1cc(Cl)ccc1Cl)B1OC(=O)CC(CC(=O)O)(C(=O)O)O1 (centres undefined) + NC1CCC(NC2CC2c2ccccc2)CC1
Result: y

Request: Assay outcome for CC(C)c1c(-c2ccccc2)nc2c(C#N)c[nH]n2c1=O + NC1CC1c1ccc(-c2cccc(O)c2)cc1 : what was it?
Result: n

Request: Per the records of this test, what outcome belongs to CC[C@@]1(O)C(=O)OCc2c1cc1n(c2=O)Cc2cc3c(CN(C)C)c(O)ccc3nc2-1 + NC1CCC(NC2CC2c2ccccc2)CC1 ?
Result: n

Request: # fetch the recorded call for CC[C@@]1(O)C(=O)OCc2c1cc1n(c2=O)Cc2cc3c(CN(C)C)c(O)ccc3nc2-1 + NC1CC1c1ccc(-c2cccc(O)c2)cc1 here
Result: y

Request: Test call for this compound, please: Cn1ncnc1C1c2n[nH]c(=O)c3cc(F)cc(c23)NC1c1ccc(F)cc1 (centres undefined) + NC1CC1c1ccc(-c2cccc(O)c2)cc1
Result: n

Request: For CC(C)c1c(-c2ccccc2)nc2c(C#N)c[nH]n2c1=O + NC1CCC(NC2CC2c2ccccc2)CC1 , what call appears in the results of this test?
Result: n
